Answer each item with its documented apparent KD of K4 kissing-loop reporter.
test system: K4 kissing-loop RNA reporter; experiment: apparent KD of K4 kissing-loop reporter; higher = weaker reporter binding; conditions: Eterna round: R107; input ligand: arginine 13.2 mM;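 note: bound reporter read as fluorescence of individual clusters on recovered sequencing chips by microscopy, with normalized cluster intensities fitted with a binding model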
Answers are plain numbers, in nM.

Consider the following illustrative entries.
sequence_content	target	quantity_name	obs_value
UAAGAAUAGCAUGCAGUGAUGUUGCAUGUCCGAGGACCGGUACGGCCGCCACUCGAGUCCUCGAACAUGCACCGAGGAAUAACAA [#19 K4 Tryptophan A Same State]	K4 kissing-loop RNA reporter	apparent KD of K4 kissing-loop reporter	79.6
UAGUCCUAGUGAUCGUUAUCACGUGGUGGGCGAGGACCGGUACGGCCGCCACUCGACUAUGCAGUGAUGUUGCAAUCCGGACAAU [Exclusion - Tryptophan A (Freestyle 15)]	K4 kissing-loop RNA reporter	apparent KD of K4 kissing-loop reporter	436
GCGCUUAAAUAAGGAUAUUACAGACUCAUCUACGAGUGAUGUUCGGUGCGCUGUGCACAGAGCCUGUAAGAAGGUAUAGCAUUGC [theeternabot_sameState_KL_FMN_B_41]	K4 kissing-loop RNA reporter	apparent KD of K4 kissing-loop reporter	716
AGUUCUUGCCGAAGGAGCGAGGCAGAGUGAUGUUCUGCAAAGAGGUCGAAAGACCUCCUGCCUCAGGUAGGUCGCGGCAUGAACA [Omei KL Arginine B Exc A v5]	K4 kissing-loop RNA reporter	apparent KD of K4 kissing-loop reporter	942
UGUCAUUGGUCGGCCGCCACUAGAAGGUCAAAGACCAUAGAGUGAUGUUCUGAGACGAAAGUCACUAGGACCGGGACCGAUGACU [TrypBS 6 #SwitchBubble #K4Middle]	K4 kissing-loop RNA reporter	apparent KD of K4 kissing-loop reporter	385

Give me apparent KD of K4 kissing-loop reporter for each of these sequences, listed below.
1. GAAAGAAAGAAUGAUACCAGACACCCGAGUGAUGUUCGGAGCAGAGUGAUGUUCUUUUAAGUCCCUUGGCAGCAUAAAAGAAAAG [whbob_SS_Theo_B_sa82]
2. CUGACCAACAGCGAUACCAGCGUGGAGUGAUGUUCCGUGGAUCGGAGUGAUGUUCCGAAGCGCCCUUGGCAGCGCAGAAGCAGGA [Exclusion Theophylline B GF11]
3. GUAUGUGGAAACACGUACUUGUAUCCUAGGAAGGAUAUGCGGAAACGCAGAAGGUCCACCGGCGAGUUUAUCCAGUGAUGUUGGA [Ex FMN A 10]
4. CGCCGCAAGGCGAGCGCUCCCACUCCGGAAGGAGCGCCCGGAAGGGCAGGUAGGUCGCCGGAGUGAUGUUCCGGUGGAGGGCUCG [#2 Exclusion - Arginine A Attempt #13 (Inspired by Omei)]
5. AGCAAAACCAAAGGAUAUUGGCAGUCGAUGUACCAUGUUCCCGUAGCAGGUUGAGUGAUGUUUAAGCAAGAAGGUUGGCGUUUGG [theeternabot_exclusion_KL_FMN_B_12]

Reply:
1: 138; 2: 136; 3: 275; 4: 248; 5: 302

Query: Given GGCCGCAAGGCGAGCGCUCCCACUCCGGAAGGAGCGCCCGUAAGGGCAGGUAGGUCGCCGGAGUGAUGUUCCGGUGGAGGGCUCG [#2 Exclusion - Arginine A Attempt #17 (Inspired by Omei)] , respond with its apparent KD of K4 kissing-loop reporter.
Reply: 239
